test system: Staphylococcus aureus; experiment: Antibacterial activity against vancomycin-resistant Staphylococcus aureus VRS 12 assessed as reduction in bacterial growth; type: functional
METRIC NAME: MIC (µg/mL)

* C[C@H]1COc2c(N3CCN(C)CC3)c(F)cc3c(=O)c(C(=O)O)cn1c23 [LEVOFLOXACIN ANHYDROUS] | 32
* O=C1N/C(=N\c2nc3ccccc3o2)S/C1=C\c1cc(Br)ccc1O | 0.5
* COc1cc(/C=C2\S/C(=N/c3nc4ccccc4o3)NC2=O)ccc1O | 2
* C[C@@H](O)[C@H]1C(=O)N2C(C(=O)O)=C(S[C@@H]3CN[C@H](C(=O)N(C)C)C3)[C@H](C)[C@H]12 | 8
* O=C1N/C(=N\c2nc3ccccc3o2)S/C1=C\c1cccc(O)c1 | 2
* O=C1N/C(=N\c2nc3ccccc3o2)S/C1=C\c1ccc(O)cc1 | 2
* O=C1N/C(=N\c2nc3ccccc3o2)S/C1=C\c1cc(Cl)ccc1O | 0.5

---

Reported MIC is given for each of the following compounds.
test system: Staphylococcus aureus; experiment: Antibacterial activity against methicilin-resistant Staphylococcus aureus NRS 191 assessed as reduction in bacterial growth; type: functional
METRIC NAME: MIC (µg/mL)

- O=C1N/C(=N\c2nc3ccccc3o2)S/C1=C\c1ccc(O)cc1: 2
- O=C1N/C(=N\c2nc3ccccc3o2)S/C1=C\c1cc(Br)ccc1O: 0.5
- COc1cc(/C=C2\S/C(=N/c3nc4ccccc4o3)NC2=O)ccc1O: 2
- C[C@H]1COc2c(N3CCN(C)CC3)c(F)cc3c(=O)c(C(=O)O)cn1c23 [LEVOFLOXACIN ANHYDROUS]: 16
- O=C1N/C(=N\c2nc3ccccc3o2)S/C1=C\c1cc(Cl)ccc1O: 0.5
- C[C@@H](O)[C@H]1C(=O)N2C(C(=O)O)=C(S[C@@H]3CN[C@H](C(=O)N(C)C)C3)[C@H](C)[C@H]12: 64
- O=C1N/C(=N\c2nc3ccccc3o2)S/C1=C\c1cccc(O)c1: 2

---

experiment: Cytotoxicity against african green monkey Vero cells assessed as reduction in cell viability incubated for 72 hrs by MTT assay; format: toxicity, cell-based; settings: chlorocebus sabaeus
METRIC NAME: CC50 at 72 h

- COc1cccc2c1C(=O)c1c(O)c3c(c(O)c1C2=O)C[C@@](O)(C(=O)CO)C[C@@H]3O[C@H]1C[C@H](N)[C@H](O)[C@H](C)O1 [DOXORUBICIN]: 10 µg/mL
- COc1cc(/C=C2\S/C(=N/c3nc4ccccc4o3)NC2=O)ccc1O: > 40 µg/mL
- O=C1N/C(=N\c2nc3ccccc3o2)S/C1=C\c1cccc(O)c1: > 40 µg/mL
- O=C1N/C(=N\c2nc3ccccc3o2)S/C1=C\c1cc(Br)ccc1O: > 20 µg/mL
- C[C@H]1COc2c(N3CCN(C)CC3)c(F)cc3c(=O)c(C(=O)O)cn1c23 [LEVOFLOXACIN ANHYDROUS]: > 100 µg/mL
- O=C1N/C(=N\c2nc3ccccc3o2)S/C1=C\c1ccc(O)cc1: > 40 µg/mL
- O=C1N/C(=N\c2nc3ccccc3o2)S/C1=C\c1cc(Cl)ccc1O: > 20 µg/mL

---

Reported MIC is given for each of the following compounds.
tested on: Enterococcus faecalis; assay: Antibacterial activity against vancomycin-susceptible Enterococcus faecalis NR 31886 assessed as inhibition of bacterial growth incubated for 18 to 24 hrs by broth microdilution assay; assay type: functional; settings: time 18-24 hrs
METRIC NAME: MIC (µg/mL)

* C[C@H]1COc2c(N3CCN(C)CC3)c(F)cc3c(=O)c(C(=O)O)cn1c23 [LEVOFLOXACIN ANHYDROUS] | 0.25
* O=C1N/C(=N\c2nc3ccccc3o2)S/C1=C\c1ccc(O)cc1 | 16
* CN(C)c1ccc(O)c2c1C[C@H]1C[C@H]3[C@H](N(C)C)C(O)=C(C(N)=O)C(=O)[C@@]3(O)C(O)=C1C2=O | 0.5
* O=C1N/C(=N\c2nc3ccccc3o2)S/C1=C\c1cc(Br)ccc1O | 4
* O=C1N/C(=N\c2nc3ccccc3o2)S/C1=C\c1cccc(O)c1 | 16
* CN[C@H](CC(C)C)C(=O)N[C@H]1C(=O)N[C@@H](CC(N)=O)C(=O)N[C@H]2C(=O)N[C@H]3C(=O)N[C@H](C(=O)N[C@H](C(=O)O)c4cc(O)cc(O)c4-c4cc3ccc4O)[C@H](O)c3ccc(c(Cl)c3)Oc3cc2cc(c3O[C@@H]2O[C@H](CO)[C@@H](O)[C@H](O)[C@H]2O[C@H]2C[C@](C)(N)[C@H](O)[C@H](C)O2)Oc2ccc(cc2Cl)[C@H]1O | 2
* COc1cc(/C=C2\S/C(=N/c3nc4ccccc4o3)NC2=O)ccc1O | 16
* O=C1N/C(=N\c2nc3ccccc3o2)S/C1=C\c1cc(Cl)ccc1O | 4

---

Reported MIC is given for each of the following compounds.
test system: Enterococcus faecium; assay: Antibacterial activity against vancomycin-resistant Enterococcus faecium NR 31909 assessed as inhibition of bacterial growth
METRIC NAME: MIC (µg/mL)

- O=C1N/C(=N\c2nc3ccccc3o2)S/C1=C\c1cc(Cl)ccc1O: 0.125
- C[C@H]1COc2c(N3CCN(C)CC3)c(F)cc3c(=O)c(C(=O)O)cn1c23 [LEVOFLOXACIN ANHYDROUS]: 64
- CN(C)c1ccc(O)c2c1C[C@H]1C[C@H]3[C@H](N(C)C)C(O)=C(C(N)=O)C(=O)[C@@]3(O)C(O)=C1C2=O: 8
- O=C1N/C(=N\c2nc3ccccc3o2)S/C1=C\c1cc(Br)ccc1O: 0.125
- O=C1N/C(=N\c2nc3ccccc3o2)S/C1=C\c1cccc(O)c1: 0.25
- COc1cc(/C=C2\S/C(=N/c3nc4ccccc4o3)NC2=O)ccc1O: 0.25
- O=C1N/C(=N\c2nc3ccccc3o2)S/C1=C\c1ccc(O)cc1: 0.25

---

tested on: Staphylococcus aureus; assay: Antibacterial activity against vancomycin-resistant Staphylococcus aureus VRS 1 assessed as reduction in bacterial growth; assay type: functional
METRIC NAME: MIC

* CN[C@H](CC(C)C)C(=O)N[C@H]1C(=O)N[C@@H](CC(N)=O)C(=O)N[C@H]2C(=O)N[C@H]3C(=O)N[C@H](C(=O)N[C@H](C(=O)O)c4cc(O)cc(O)c4-c4cc3ccc4O)[C@H](O)c3ccc(c(Cl)c3)Oc3cc2cc(c3O[C@@H]2O[C@H](CO)[C@@H](O)[C@H](O)[C@H]2O[C@H]2C[C@](C)(N)[C@H](O)[C@H](C)O2)Oc2ccc(cc2Cl)[C@H]1O | > 64 µg/mL
* O=C1N/C(=N\c2nc3ccccc3o2)S/C1=C\c1ccc(O)cc1 | 2 µg/mL
* C[C@H]1COc2c(N3CCN(C)CC3)c(F)cc3c(=O)c(C(=O)O)cn1c23 [LEVOFLOXACIN ANHYDROUS] | 64 µg/mL
* COc1cc(/C=C2\S/C(=N/c3nc4ccccc4o3)NC2=O)ccc1O | 4 µg/mL
* O=C1N/C(=N\c2nc3ccccc3o2)S/C1=C\c1cc(Cl)ccc1O | 1 µg/mL
* O=C1N/C(=N\c2nc3ccccc3o2)S/C1=C\c1cc(Br)ccc1O | 1 µg/mL
* O=C1N/C(=N\c2nc3ccccc3o2)S/C1=C\c1cccc(O)c1 | 2 µg/mL
* C[C@@H](O)[C@H]1C(=O)N2C(C(=O)O)=C(S[C@@H]3CN[C@H](C(=O)N(C)C)C3)[C@H](C)[C@H]12 | 64 µg/mL

---

Reported MIC is given for each of the following compounds.
tested on: Staphylococcus aureus; assay: Antibacterial activity against methicilin-resistant Staphylococcus aureus NRS 129 assessed as reduction in bacterial growth; assay type: functional
METRIC NAME: MIC (µg/mL)

- O=C1N/C(=N\c2nc3ccccc3o2)S/C1=C\c1ccc(O)cc1: 2
- C[C@H]1COc2c(N3CCN(C)CC3)c(F)cc3c(=O)c(C(=O)O)cn1c23 [LEVOFLOXACIN ANHYDROUS]: 0.25
- O=C1N/C(=N\c2nc3ccccc3o2)S/C1=C\c1cc(Br)ccc1O: 0.5
- COc1cc(/C=C2\S/C(=N/c3nc4ccccc4o3)NC2=O)ccc1O: 4
- O=C1N/C(=N\c2nc3ccccc3o2)S/C1=C\c1cc(Cl)ccc1O: 0.5
- O=C1N/C(=N\c2nc3ccccc3o2)S/C1=C\c1cccc(O)c1: 2
- C[C@@H](O)[C@H]1C(=O)N2C(C(=O)O)=C(S[C@@H]3CN[C@H](C(=O)N(C)C)C3)[C@H](C)[C@H]12: 4

---

Reported MIC is given for each of the following compounds.
tested on: Enterococcus faecium; test: Antibacterial activity against vancomycin-resistant Enterococcus faecium NR 31903 assessed as inhibition of bacterial growth
METRIC NAME: MIC (µg/mL)

- O=C1N/C(=N\c2nc3ccccc3o2)S/C1=C\c1cccc(O)c1: 4
- O=C1N/C(=N\c2nc3ccccc3o2)S/C1=C\c1cc(Cl)ccc1O: 1
- O=C1N/C(=N\c2nc3ccccc3o2)S/C1=C\c1cc(Br)ccc1O: 1
- CN(C)c1ccc(O)c2c1C[C@H]1C[C@H]3[C@H](N(C)C)C(O)=C(C(N)=O)C(=O)[C@@]3(O)C(O)=C1C2=O [MINOCYCLINE]: 8
- O=C1N/C(=N\c2nc3ccccc3o2)S/C1=C\c1ccc(O)cc1: 4
- COc1cc(/C=C2\S/C(=N/c3nc4ccccc4o3)NC2=O)ccc1O: 4

Reference source for all entries: ChEMBL document CHEMBL5329174
